Documented Percentage damage, wheat treated with cloquintocet-mexyl across a set of compounds
# System: wheat (variety Hereward)
# Test details: Pre-emergence safening on wheat, seed treated with safener, general crop injury
# Assay type: in vivo
# Settings: 250 g/ha compound of formula (I) sprayed the day after planting; seed treated with cloquintocet-mexyl at 0.25 g per kg seed; evaluated after 21 days; mean of two replicates
Parameter measured: Percentage damage, wheat treated with cloquintocet-mexyl

Compound: O=C1COCCN1Cc1ccccc1NS(=O)(=O)C(F)(F)F
Measured on: wheat (variety Hereward)
Recorded value: 10%

Compound: O=C1NCCCN1Cc1ccccc1NS(=O)(=O)C(F)(F)F
Measured on: wheat (variety Hereward)
Recorded value: 10%

Compound: O=C1CCCN1Cc1ccccc1NS(=O)(=O)C(F)(F)F
Measured on: wheat (variety Hereward)
Recorded value: 5%

Compound: O=C1CCCCN1Cc1ccccc1NS(=O)(=O)C(F)(F)F
Measured on: wheat (variety Hereward)
Recorded value: 20%

Compound: CCOC(=O)N(c1ccccc1CN1CCC(C)(C(F)(F)F)OC1=O)S(=O)(=O)C(F)(F)F (centres unmarked)
Measured on: wheat (variety Hereward)
Recorded value: 0%

###

# Tested on: Maize (variety Claxxon)
# Test details: Pre-emergence safening on corn, seed treated with safener, general crop injury
# Format: in vivo
# Settings: 250 g/ha compound of formula (I) sprayed the day after planting; seed without safener; evaluated after 21 days; mean % visual phytotoxicity of two replicates
Mark Met only when Percentage damage, untreated corn stays strictly below 30%. Values equal to the cut-off are Not met.

Compound: CCCC(=O)N(c1ccccc1CN1CCCCC1=O)S(=O)(=O)C(F)(F)F
Class: Not met
--
Compound: O=C1NCCCN1Cc1ccccc1NS(=O)(=O)C(F)(F)F
Class: Not met
--
Compound: CCOC(=O)N(c1ccccc1CN1CCCN(C)S1(=O)=O)S(=O)(=O)C(F)(F)F
Class: Met
--
Compound: CCOC(=O)N(c1ccccc1CN1CCCCC1=O)S(=O)(=O)C(F)(F)F
Class: Not met
--
Compound: O=C1COCCN1Cc1ccccc1NS(=O)(=O)C(F)(F)F
Class: Not met
--
Compound: CN1CCCN(Cc2ccccc2N(C(=O)OCCl)S(=O)(=O)C(F)(F)F)S1(=O)=O
Class: Met
--
Compound: CCC(=O)N(c1ccccc1CN1CCCC(SC)C1=O)S(=O)(=O)C(F)(F)F (centres unmarked)
Class: Not met

###

# System: Maize (variety Claxxon)
# Test details: Pre-emergence safening on corn, seed treated with safener, general crop injury
# Type: in vivo
# Settings: 250 g/ha compound of formula (I) sprayed the day after planting; seed without safener; evaluated after 21 days; mean % visual phytotoxicity of two replicates
Mark Satisfied only when Percentage damage, untreated corn stays strictly below 20%. Values equal to the cut-off are Not satisfied.

Molecule: CC1(C)CC(=O)N(Cc2ccccc2N(C(=O)OCCl)S(=O)(=O)C(F)(F)F)O1 [Compound 21]
Class: Not satisfied
//
Molecule: O=C1CCCCN1Cc1ccccc1NS(=O)(=O)C(F)(F)F [Compound 5]
Class: Not satisfied
//
Molecule: CCOC(=O)N(c1ccccc1CN1CCC(C)(C(F)(F)F)OC1=O)S(=O)(=O)C(F)(F)F (centres unmarked) [Compound 103]
Class: Satisfied
//
Molecule: CC(C)COC(=O)N(c1ccccc1CN1CCCN(C)S1(=O)=O)S(=O)(=O)C(F)(F)F [Compound 147]
Class: Satisfied
//
Molecule: CC1(C)CC(=O)N(Cc2ccccc2NS(=O)(=O)C(F)(F)F)O1 [Compound 20]
Class: Not satisfied
//
Molecule: CC1(C)CN(Cc2ccccc2NS(=O)(=O)C(F)(F)F)C(=O)O1 [Compound 85]
Class: Not satisfied
//
Molecule: CC1(C(F)(F)F)CCN(Cc2ccccc2N(C(=O)OCCl)S(=O)(=O)C(F)(F)F)C(=O)O1 (centres unmarked) [Compound 102]
Class: Satisfied
